Where these numbers come from: the nanobody polyreactivity screen of Harvey et al. (2022)

test: yeast display, Sf9 membrane polyspecificity reagent, FACS + sequencing; frameworks hold sequencing errors

{"SEQUENCE INPUT": "QVQRVESGGGLVQAGGSLRLSCAASGFTLDPYAMGWYRQAPGKEREFVAAIRLSGSSTYYADSVKGRFTISRDNAKNTVYLQMNSLKPEDTAVYYCAADGISHWLYRYDYWGQGTQVTVSS", "polyreactivity (PSR sort gate)": "low polyreactivity"}
{"SEQUENCE INPUT": "QVQLVESGGGLVQAGGSLRLSCAASGSTFYSYAMGWYRQAPGKERELVAAITKGGGSTYYADSVKGRFTISRDNAKNTVYLQMNSLIPEDTAVYYCAAPGLYWYYTRSVYDYWGQGTQVTVSS", "polyreactivity (PSR sort gate)": "high polyreactivity"}
{"SEQUENCE INPUT": "QVQLVESGGGLVQAGGSLRLSCAAYGFTIYYYTMGWYRQAPGKERELFAAISHSGSSTYYADSVKGRFTISRDNAKKTVNLQMNSLKPEDTAVYYCAASRSKNSALGGRVSIGDYWGQGTQVTVSS", "polyreactivity (PSR sort gate)": "high polyreactivity"}
{"SEQUENCE INPUT": "QVQLVESGGGLVQAGGSLRLSCAASGFIFAGNAMGWYRQAPGKERELVAAISGSGGSTYYADSVKGRFTISRDNAKNTVYLQMNSLKPEDTAVYYCNAVYYRYYDVEGFDYWGQGTQVTVSS", "polyreactivity (PSR sort gate)": "high polyreactivity"}
{"SEQUENCE INPUT": "QVQLVESGGGLVQAGGSLRLSCAASGSIFTTYAMGWYRQAPGKERELVAAISSTSGSTYYADSVKGRFTISGDNAKNTVYLQMTSLKPEDTAVYYCAARGGYWGQGTQVTVSS", "polyreactivity (PSR sort gate)": "low polyreactivity"}
